Molecular target: human Tie2 (Homo sapiens)
Construct: human Tie2 corresponding to amino acids 776-1124 of the intracellular domain was generated by PCR; made in house; host or cells: baculovirus expression system (vector pFastBacGT)
Sequence (Q02763 776-1124): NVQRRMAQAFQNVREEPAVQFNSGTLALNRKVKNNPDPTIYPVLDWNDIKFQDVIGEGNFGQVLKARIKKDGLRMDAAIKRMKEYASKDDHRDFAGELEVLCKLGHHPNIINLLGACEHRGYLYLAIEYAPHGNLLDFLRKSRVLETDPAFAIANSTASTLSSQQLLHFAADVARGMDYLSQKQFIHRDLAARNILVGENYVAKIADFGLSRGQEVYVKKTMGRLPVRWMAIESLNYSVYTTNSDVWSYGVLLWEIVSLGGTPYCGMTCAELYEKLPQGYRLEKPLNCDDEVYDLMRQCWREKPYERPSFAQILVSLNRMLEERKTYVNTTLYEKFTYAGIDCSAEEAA
Experiment: Tie2 kinase inhibition: phosphorylation of GST-PLC (SH2-SH3 fragments) by GST-Tie2, 33P-ATP flashplate
Type: biochemical
Conditions: Assay 1, read-out: Tie2 % Inhib at 10 μM (FRX) Assay 1
Readout Type: inhibition at 10 µM (%)
Answers are plain numbers, in %.

Illustrative cases are given below, each with its answer.
Cc1cc2nc(-c3[nH]nc4c3CCN(C(=O)c3ccccc3Nc3ccccc3)C4)[nH]c2cc1C
83.1
Cc1cc2nc(-c3[nH]nc4c3CCN(C(=O)c3ccccc3Nc3cccc(C(F)(F)F)c3)C4)[nH]c2cc1C
83.1
Cc1cc2nc(-c3[nH]nc4c3CCN(C(=O)c3ccccc3OCc3ccccc3)C4)[nH]c2cc1C
82.6

Could you now consider this next molecule?
Problem: // inhibition at 10 µM lookup, key: Cc1cc2nc(-c3[nH]nc4c3CCN(C(=O)c3ccccc3NCc3ccco3)C4)[nH]c2cc1C
Result: 88.7

* * *

Biological target: human KDR enzyme (Homo sapiens)
Construct: The cytoplasmic domain of the human KDR enzyme was cloned in GST fusion form; GST; made in house; host or cells: SF21 insect cells (baculovirus, pFastBac)
Sequence (P35968 786-1356 limits assumed): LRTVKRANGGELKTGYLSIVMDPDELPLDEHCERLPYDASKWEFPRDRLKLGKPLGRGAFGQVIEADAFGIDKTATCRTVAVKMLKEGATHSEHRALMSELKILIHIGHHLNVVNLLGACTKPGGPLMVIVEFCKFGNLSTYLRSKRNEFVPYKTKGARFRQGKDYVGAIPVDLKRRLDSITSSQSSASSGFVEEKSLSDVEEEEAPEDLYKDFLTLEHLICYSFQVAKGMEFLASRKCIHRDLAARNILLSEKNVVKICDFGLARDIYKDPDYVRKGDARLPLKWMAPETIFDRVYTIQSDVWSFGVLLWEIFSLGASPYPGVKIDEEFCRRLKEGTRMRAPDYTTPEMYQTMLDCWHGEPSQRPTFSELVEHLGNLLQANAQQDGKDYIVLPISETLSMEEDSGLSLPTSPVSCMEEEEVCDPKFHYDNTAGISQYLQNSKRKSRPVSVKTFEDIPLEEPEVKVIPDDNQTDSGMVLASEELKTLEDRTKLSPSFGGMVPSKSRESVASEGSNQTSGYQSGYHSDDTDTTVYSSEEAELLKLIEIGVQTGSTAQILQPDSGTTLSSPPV
Assay: KDR kinase inhibition: phosphorylation of PLCγ SH2-SH3 substrate by KDR enzyme, 33P-ATP scintillation plate
Type: biochemical
Settings: Assay 2, read-out: KDR % Inhib at 10 μM Assay 2
Readout Type: inhibition at 10 µM (%)
Answers are plain numbers, in %.

Batch lookup, inhibition at 10 µM per entry.
1. Cc1cc2nc(-c3[nH]nc4c3CCN(C(=O)c3ccccc3CCc3ccccc3)C4)[nH]c2cc1C
2. Cc1cc2nc(-c3[nH]nc4c3CCN(C(=O)c3ccccc3NC(=O)c3ccc(Cl)cc3)C4)[nH]c2cc1C
3. Cc1cc2c(cc1C)NC(c1[nH]nc3c1CCN(C(=O)c1ccc(C)c([N+](=O)[O-])c1)C3)N2
4. Cc1cc2nc(-c3[nH]nc4c3CCN(C(=O)c3ccccc3Oc3ccccc3)C4)[nH]c2cc1C

Result:
[64.3, 77.4, 13, 95.4]

* * *

Molecular target: human Tie2 (Homo sapiens)
Construct: human Tie2 corresponding to amino acids 776-1124 of the intracellular domain was generated by PCR; made in house; host or cells: baculovirus expression system (vector pFastBacGT)
Assay: Tie2 kinase inhibition: phosphorylation of GST-PLC (SH2-SH3 fragments) by GST-Tie2, 33P-ATP flashplate
Assay type: biochemical
Conditions: read-out: Tie2 % Inhib. 10 μM
Experimental: The coding sequence of human Tie2 corresponding to amino acids 776-1124 of the intracellular domain was generated by PCR using the cDNA isolated from human placenta as model. […] The inhibitory effect of the molecules is determined in an assay for phosphorylation of PLC by Tie2 in the presence of GST-Tie2 purified to approximately 80% homogeneity. […] The kinase activity of Tie2 is measured in a 20 mM MOPS buffer, pH 7.2, containing 10 mM MgCl2, 10 mM MnCl2, 1 mM DTT and 10 mM of glycerophosphate. […]
Label MET for high-side inhibition at 10 µM (at or above 80%) and NOT MET for low-side inhibition at 10 µM (below it).

Example results:
Cc1cc2nc(-c3[nH]nc4c3CCN(CCCc3ccccc3)C4)[nH]c2cc1C [Chemistry 19]
NOT MET
Cc1cccc(S(=O)(=O)N2CCc3c(n[nH]c3-c3nc4cc(C)c(C)cc4[nH]3)C2)c1 [Chemistry 37]
MET
Cc1cc2nc(-c3[nH]nc4c3CCN(S(=O)(=O)Cc3ccc(F)cc3)C4)[nH]c2cc1C [Chemistry 33]
MET
Cc1cc2nc(-c3[nH]nc4c3CCN(C(=O)c3cccc(Cl)c3)C4)[nH]c2cc1C [Chemistry 47]
MET
Cc1cc2nc(-c3[nH]nc4c3CCN(C(=O)Nc3ccccc3)C4)[nH]c2cc1C [Chemistry 59]
NOT MET
Cc1cc2nc(-c3[nH]nc4c3CCN(CC(C)C)C4)[nH]c2cc1C [Chemistry 6]
NOT MET
CCN1CCc2c(n[nH]c2-c2nc3cc(C)c(C)cc3[nH]2)C1 [Chemistry 16]
NOT MET
Cc1cc2nc(-c3[nH]nc4c3CCN(Cc3cccs3)C4)[nH]c2cc1C [Chemistry 13]
NOT MET
Cc1cc2nc(-c3[nH]nc4c3CCN(C)C4)[nH]c2cc1C [Chemistry 7]
NOT MET
COc1ccc(S(=O)(=O)Nc2ccc(N3CCc4c(n[nH]c4-c4nc5cc(C)c(C)cc5[nH]4)C3)nc2)cc1
MET

Problem: Item Cc1cc2nc(-c3[nH]nc4c3CCN(Cc3ccccc3)C4)[nH]c2cc1C [Chemistry 8] with inhibition at 10 µM of 80% or above?
Result: NOT MET

Problem: Item Cc1cc2nc(-c3[nH]nc4c3CCN(S(=O)(=O)c3ccc(Cl)cc3)C4)[nH]c2cc1C [Chemistry 26] with inhibition at 10 µM of 80% or above?
Result: MET

Problem: Item Cc1cc2nc(-c3[nH]nc4c3CCN(C(=O)CN(C)C)C4)[nH]c2cc1C [Chemistry 55] with inhibition at 10 µM of 80% or above?
Result: NOT MET

Problem: Item Cc1cc2nc(-c3[nH]nc4c3CCN(Cc3ccco3)C4)[nH]c2cc1C [Chemistry 11] with inhibition at 10 µM of 80% or above?
Result: NOT MET
